I'd appreciate it if you could supply Normalized IC50 (PL IC50/DXD IC50) values for the items below.
system: SKBR-3 cell line (human breast cancer); assay: Cytotoxicity Assay (Cell titer glo, 72 h), SKBR-3; format: cell-based; settings: ratio of payload IC50 to DXD control IC50

The molecule CC[C@@]1(O)C(=O)OCc2c1cc1n(c2=O)Cc2c-1nc1cc(F)c(C)cc1c2Cn1cc(CN2CCCC(CO)C2)nn1 (some centres unmarked) [Payload 56] , tested on SKBR-3 cell line (human breast cancer), showed Normalized IC50 (PL IC50/DXD IC50) of 7.05

Measured Normalized IC50 (PL IC50/DXD IC50) for this entry CC[C@@]1(O)C(=O)OCc2c1cc1n(c2=O)Cc2c-1nc1cc(F)c(C)cc1c2Cn1cc(CCCNC(=O)CO)nn1 [Payload 68] on SKBR-3 cell line (human breast cancer): 19.01

Lab note: molecule CC[C@@]1(O)C(=O)OCc2c1cc1n(c2=O)Cc2c-1nc1cc(F)c(C)cc1c2Cn1cc(CN2CCN(C(=O)CO)CC2)nn1 [Payload 60] tested on SKBR-3 cell line (human breast cancer); recorded Normalized IC50 (PL IC50/DXD IC50) was 338.2

Entry CC[C@@]1(O)C(=O)OCc2c1cc1n(c2=O)Cc2c-1nc1cc(F)c(C)cc1c2Cn1cc(-c2ccc(N)cc2)nn1 [Payload 13] under SKBR-3 cell line (human breast cancer) had Normalized IC50 (PL IC50/DXD IC50) of 6.84

Hey, SKBR-3 cell line (human breast cancer) data for CC[C@@]1(O)C(=O)OCc2c1cc1n(c2=O)Cc2c-1nc1cc(F)c(C)cc1c2Cn1cc(C(C)NC(=O)CO)nn1 (some centres unmarked) [Payload 64] : Normalized IC50 (PL IC50/DXD IC50) came out at 22.21

Item CC[C@@]1(O)C(=O)OCc2c1cc1n(c2=O)Cc2c-1nc1cc(F)c(C)cc1c2Cn1cc(-c2ccc(N)nc2)nn1 [Payload 52] was tested on SKBR-3 cell line (human breast cancer); the reported Normalized IC50 (PL IC50/DXD IC50) is 2.88

# Normalized IC50 (PL IC50/DXD IC50) measured on SKBR-3 cell line (human breast cancer) for item CC[C@@]1(O)C(=O)OCc2c1cc1n(c2=O)Cc2c-1nc1cc(F)c(C)cc1c2Cn1cc(-c2cccnc2N)nn1 [Payload 49] = 1.30

Record CC[C@@]1(O)C(=O)OCc2c1cc1n(c2=O)Cc2c-1nc1cc(F)c(C)cc1c2Cn1cc(CN2CCOC(CN)C2)nn1 (some centres unmarked) [Payload 58] has SKBR-3 cell line (human breast cancer) Normalized IC50 (PL IC50/DXD IC50) equal to 23.79

// molecule CC[C@@]1(O)C(=O)OCc2c1cc1n(c2=O)Cc2c-1nc1cc(F)c(C)cc1c2Cn1cc(C2(NC(=O)CO)CC2)nn1 [Payload 63] , assay SKBR-3 cell line (human breast cancer), Normalized IC50 (PL IC50/DXD IC50) value: 44.21

// Normalized IC50 (PL IC50/DXD IC50) (SKBR-3 cell line (human breast cancer)) for CC[C@@]1(O)C(=O)OCc2c1cc1n(c2=O)Cc2c-1nc1cc(F)c(C)cc1c2Cn1cc(-c2ccc(NC(=O)CO)cc2)nn1 [Payload 15] = 27.79

The value of Normalized IC50 (PL IC50/DXD IC50) recorded for CC[C@@]1(O)C(=O)OCc2c1cc1n(c2=O)Cc2c-1nc1cc(F)c(C)cc1c2Cn1cc(CNC)nn1 [Payload 6] when tested on SKBR-3 cell line (human breast cancer) reads 94.92

SKBR-3 cell line (human breast cancer) assay, molecule CC[C@@]1(O)C(=O)OCc2c1cc1n(c2=O)Cc2c-1nc1cc(F)c(C)cc1c2Cn1cc(CCCO)nn1 [Payload 59] , recorded Normalized IC50 (PL IC50/DXD IC50) = 4.84

Recorded Normalized IC50 (PL IC50/DXD IC50) for CC[C@@]1(O)C(=O)OCc2c1cc1n(c2=O)Cc2c-1nc1cc(F)c(C)cc1c2Cn1nncc1CN [Payload 8] on SKBR-3 cell line (human breast cancer) was 1.84

Observed Normalized IC50 (PL IC50/DXD IC50), SKBR-3 cell line (human breast cancer), CC[C@@]1(O)C(=O)OCc2c1cc1n(c2=O)Cc2c-1nc1cc(F)c(C)cc1c2Cn1cc(CNC(=O)CO)nn1 [Payload 7] : 203.99
